Entries annotated with measured log10 IC50
test system: phosphorylation of eIF4E at ser209 in MV4.11 cell line; test: MNK cellular activity phospho-eIF4E detection assay (Alphascreen Surefire); format: cell-based; conditions: Homo sapiens; MV4.11 cell line, phospho-eIF4E (ser209) Alphascreen Surefire; read-out: P(IC50) elF4E (converted)
Friendly reminder: values = log10 of IC50, unit nM.

compound="CC(C)(O)CC1CN(c2ncnc3sc(C(=O)NCC4CCNCC4)nc23)c2ccc(F)cc21 (centres unmarked)" recorded_result=0.70

log10 IC50 recorded for this compound, CC(C)Oc1cc(F)ccc1Nc1ncnc2sc(C(=O)NC3CCOCC3)nc12 , is 1.90

Reported log10 IC50 for CC(C)Oc1cc(F)ccc1Nc1ncnc2sc(C(=O)NCC3CCN(C)CC3)nc12 was 1.70

Sample CNCCCNC(=O)c1nc2c(N3CCc4cc(F)ccc43)ncnc2s1 ; log10 IC50 observed: 0.70

The value of log10 IC50 measured for the compound COc1ccc2c(c1)CCN2c1ncnc2sc(C(=O)NCC3CCNCC3)nc12 turned out to be 1.60

Entry CN1CCN(CCC2CN(c3ncnc4sc(C(=O)NC5CCOCC5)nc34)c3ccccc32)CC1 (centres unmarked) — recorded log10 IC50 = 1.70

The recorded log10 IC50 for entry CC1CN(c2ncnc3sc(C(=O)NC4CCOCC4)nc23)c2ccccc21 (centres unmarked) equals 0.60

The recorded log10 IC50 for entry CC(C)[C@@H](CO)NC(=O)c1nc2c(N3CCc4ccccc43)ncnc2s1 equals 1.50

###

system: phosphorylation of eIF4E at ser209 in MV4.11 cell line; test: MNK cellular activity phospho-eIF4E detection assay (Alphascreen Surefire); type: cell-based; details: Homo sapiens; MV4.11 cell line, phospho-eIF4E (ser209) Alphascreen Surefire; read-out: P(IC50) elF4E (converted)
Entries and their IC50
// units = nM; emit number, no label

molecule=O=C(NCCN1CCCC1)c1nc2c(N3CCc4cc(F)ccc43)ncnc2s1 recorded_result=20
molecule=CO[C@H]1CCC[C@@H](Oc2cc(F)ccc2Nc2ncnc3sc(C(=O)NCC4CCNCC4)nc23)C1 recorded_result=631
molecule=O=C(Nc1ccc(Nc2ncnc3sc(C(=O)NCC4CCNCC4)nc23)cc1)Nc1cccc(C(F)(F)F)c1 recorded_result=79.4
molecule="CNCCC1CN(c2ncnc3sc(C(=O)NC4CCOCC4)nc23)c2ccccc21 (stereo not drawn)" recorded_result=126
molecule=CC(C)Oc1ccccc1Nc1ncnc2sc(C(=O)NCCCN(C)C)nc12 recorded_result=63.1
molecule=CN(C)CCCNC(=O)c1nc2c(Nc3cccc4c3OCC4)ncnc2s1 recorded_result=1000
molecule=CNCCNC(=O)c1nc2c(Nc3ccc(F)cc3OC(C)C)ncnc2s1 recorded_result=100
molecule=CCOc1cc(F)ccc1Nc1ncnc2sc(C(=O)NCC3CCNCC3)nc12 recorded_result=126

Considering O=C(NC1CCOCC1)c1nc2c(N3CCc4ccccc43)ncnc2s1 , its IC50 with phosphorylation of eIF4E at ser209 in MV4.11 cell line was recorded as 20

Test item CC(C)(O)c1nc2c(N3CCc4cc(F)ccc43)ncnc2s1 ; phosphorylation of eIF4E at ser209 in MV4.11 cell line; reported IC50 was 158

Record CC1(CO)CN(c2ncnc3sc(C(=O)NCC4CCNCC4)nc23)c2ccccc21 (stereo not drawn) has phosphorylation of eIF4E at ser209 in MV4.11 cell line IC50 equal to 39.8

// IC50 (phosphorylation of eIF4E at ser209 in MV4.11 cell line) for CC1Cc2ccccc2N1c1ncnc2sc(C(=O)NC3CCOCC3)nc12 (stereo not drawn) = 50.1

The molecule CC(C)(O)CC1CN(c2ncnc3sc(C(=O)NCC4CCNCC4)nc23)c2ccccc21 (stereo not drawn) , when measured on phosphorylation of eIF4E at ser209 in MV4.11 cell line, yielded IC50 of 10

Here CC(C)Oc1cc(F)ccc1Nc1ncnc2scnc12 was tested on phosphorylation of eIF4E at ser209 in MV4.11 cell line, and its IC50 came to 126

Assay phosphorylation of eIF4E at ser209 in MV4.11 cell line, sample C[C@@H]1Cc2ccccc2N1c1ncnc2sc(C(=O)NC3CCOCC3)nc12 , IC50 read: 50.1

Bench note, phosphorylation of eIF4E at ser209 in MV4.11 cell line: CC(C)Oc1ccc2c(c1)CCN2c1ncnc2sc(C(=O)NC3CCOCC3)nc12 , IC50 reads 501

Hey, phosphorylation of eIF4E at ser209 in MV4.11 cell line data for CC(C)Oc1cc(F)ccc1Nc1ncnc2sc(C(=O)NCCCN(C)C)nc12 : IC50 came out at 50.1

Considering CC1CN(c2ncnc3sc(C(=O)NCC4CCNCC4)nc23)c2ccccc21 (stereo not drawn) , its IC50 with phosphorylation of eIF4E at ser209 in MV4.11 cell line was recorded as 5.01

Response field IC50 (phosphorylation of eIF4E at ser209 in MV4.11 cell line) for item O=C(NC1CCOCC1)c1nc2c(N3CCc4cnccc43)ncnc2s1 : 25.1

# CC(C)Oc1cc(F)ccc1Nc1ncnc2sc(C(=O)NCCN(C)C)nc12 with phosphorylation of eIF4E at ser209 in MV4.11 cell line: IC50 is 63.1

For O=C(NCC1CCOCC1)c1nc2c(N3CCc4ccccc43)ncnc2s1 on phosphorylation of eIF4E at ser209 in MV4.11 cell line, measured IC50 was 63.1

###

Known pIC50 of a selection of compounds
Target: Full-length human MNK2 (Homo sapiens, UniProt Q9HBH9, T379D)
Construct: GST (N); purchased Carna Biosciences 02-146; host or cells: baculovirus expression system
Sequence (Q9HBH9 whole entry T379D): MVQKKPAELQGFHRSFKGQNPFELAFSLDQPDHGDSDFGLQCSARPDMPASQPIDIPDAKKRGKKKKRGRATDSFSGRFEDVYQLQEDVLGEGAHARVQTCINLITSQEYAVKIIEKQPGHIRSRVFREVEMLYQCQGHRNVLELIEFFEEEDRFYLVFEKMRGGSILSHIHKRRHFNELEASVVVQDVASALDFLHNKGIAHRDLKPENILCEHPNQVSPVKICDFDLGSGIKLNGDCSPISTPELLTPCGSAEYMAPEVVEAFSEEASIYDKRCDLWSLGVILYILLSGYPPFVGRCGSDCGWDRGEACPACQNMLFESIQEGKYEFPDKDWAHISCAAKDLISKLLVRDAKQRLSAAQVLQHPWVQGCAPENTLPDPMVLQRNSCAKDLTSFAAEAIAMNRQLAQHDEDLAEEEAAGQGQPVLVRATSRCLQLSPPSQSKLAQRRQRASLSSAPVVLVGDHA
Assay: MNK2 biochemical IC50 assay (Caliper Mobility Shift Assay)
Text: The phosphorylated peptide product and unphosphorylated peptide substrate were detected using a Caliper Mobility Shift Assay using the Caliper LabChip EZ Reader II. The Caliper Mobility Shift Assay technology is based on the utilisation of a microfluidic chip to measure the conversion of a fluorescent non-phosphorylated peptide substrate to phosphorylated product by electrophoresis separation of substrate and product and detection via Laser-induced fluorescence. […]
Quick note: pIC50 means taking -log10 of the concentration in moles per liter.

Some entries whose results are on file:
compound_smiles=CC1(C)CN(c2ncnc3sc(C(=O)NCC4CCNCC4)nc23)c2ccccc21 tgt="Full-length human MNK2 (Homo sapiens, UniProt Q9HBH9, T379D)" measurement_label=pIC50 recorded_result=8.60
compound_smiles=CC(C)Oc1cc(F)ccc1Nc1ncnc2sc(C(=O)NCC3CCNCC3)nc12 tgt="Full-length human MNK2 (Homo sapiens, UniProt Q9HBH9, T379D)" measurement_label=pIC50 recorded_result=7.30
compound_smiles=O=C(NCCCN1CCCC1)c1nc2c(N3CCc4cc(F)ccc43)ncnc2s1 tgt="Full-length human MNK2 (Homo sapiens, UniProt Q9HBH9, T379D)" measurement_label=pIC50 recorded_result=8.70
compound_smiles=CN(C)CCCNC(=O)c1nc2c(N3CCc4ccccc43)ncnc2s1 tgt="Full-length human MNK2 (Homo sapiens, UniProt Q9HBH9, T379D)" measurement_label=pIC50 recorded_result=8.10
compound_smiles=CC(C)Oc1cc(F)ccc1Nc1ncnc2sc(C(=O)NCCN3CCNCC3)nc12 tgt="Full-length human MNK2 (Homo sapiens, UniProt Q9HBH9, T379D)" measurement_label=pIC50 recorded_result=7.50
compound_smiles=CN(C)CCCNC(=O)c1nc2c(N3CC(C)(C)c4ccccc43)ncnc2s1 tgt="Full-length human MNK2 (Homo sapiens, UniProt Q9HBH9, T379D)" measurement_label=pIC50 recorded_result=8.40

Per the record, CN(C)CCCNC(=O)c1nc2c(N3CCc4cc(F)ccc43)ncnc2s1 has pIC50 of 8.70

# pIC50 of O=C(NCC1CCNCC1)c1nc2c(N3CCc4cc(F)ccc43)ncnc2s1 = 8.40

###

tested on: phosphorylation of eIF4E at ser209 in MV4.11 cell line; assay: MNK cellular activity phospho-eIF4E detection assay (Alphascreen Surefire); format: cell-based; conditions: Homo sapiens; MV4.11 cell line, phospho-eIF4E (ser209) Alphascreen Surefire; read-out: P(IC50) elF4E (converted)
Here the recorded IC50 is given for each entry.
Give a bare numeral; the unit nM is implied.

Worked cases, IC50 given:
molecule=CN(C)CCCNC(=O)c1nc2c(N3CCc4cccc(F)c43)ncnc2s1 recorded_result=251
molecule="CN(C)CCC1CN(c2ncnc3sc(C(=O)NC4CCOCC4)nc23)c2ccccc21 (stereo not shown)" recorded_result=50.1
molecule=CNC(=O)c1nc2c(N3CCc4cc(F)ccc43)ncnc2s1 recorded_result=6.31
molecule=O=C(NC1CCOCC1)c1nc2c(N3CCc4cc(C(F)(F)F)ccc43)ncnc2s1 recorded_result=316
molecule="CN1CCN(CCC2CN(c3ncnc4sc(C(=O)NC5CCOCC5)nc34)c3ccc(F)cc32)CC1 (stereo not shown)" recorded_result=25.1

// O=C(NCC1CCNCC1)c1nc2c(Nc3ccc4[nH]ncc4c3)ncnc2s1 : IC50 value = 794

// IC50 value for O=C(NCC1CCNCC1)c1nc2c(N3CCOc4cc(F)ccc43)ncnc2s1 : 794

The measurements presented in this section are drawn from patent US10669284B2.
